# measurement-target: human CYP4A11 (Homo sapiens (Human))
# Sequence (Q02928 5-519): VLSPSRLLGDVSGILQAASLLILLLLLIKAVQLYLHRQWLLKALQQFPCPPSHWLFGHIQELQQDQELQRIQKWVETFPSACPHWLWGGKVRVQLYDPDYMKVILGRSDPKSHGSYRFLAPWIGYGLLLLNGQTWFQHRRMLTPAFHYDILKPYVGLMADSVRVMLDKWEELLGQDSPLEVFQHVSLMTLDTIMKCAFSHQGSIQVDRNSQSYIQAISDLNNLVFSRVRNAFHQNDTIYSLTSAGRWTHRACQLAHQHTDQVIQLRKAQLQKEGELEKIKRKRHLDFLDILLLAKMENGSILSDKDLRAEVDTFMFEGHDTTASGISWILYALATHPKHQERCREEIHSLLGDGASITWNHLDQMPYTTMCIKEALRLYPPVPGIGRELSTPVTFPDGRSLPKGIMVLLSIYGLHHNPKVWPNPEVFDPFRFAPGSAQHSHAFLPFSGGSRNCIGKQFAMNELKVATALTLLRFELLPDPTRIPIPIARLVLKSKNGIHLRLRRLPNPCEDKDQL
# procedure-summary: Inhibition test against 20-HETE producing enzyme CYP4A11 (luciferine derivative, luminescence)
# Type: biochemical
# details: E. coli membrane fraction expressing human CYP4A11, 60 μM luciferine derivative, room temperature 60 minutes
assay-readout: IC50 (nM)
Give your result in nM as a bare value.

Incoming: Find the recorded IC50 belonging to "CC(C)(CCCCOc1ccc(-c2ccn[nH]2)nc1)C(=O)O" and report it.
Outgoing: 42

Incoming: Next record, please: OC(c1ccc(COc2ccc(-c3ccn[nH]3)nc2)cc1)C(F)(F)F (stereo not shown)
Outgoing: 1500

Incoming: Next record, please: "O=c1[nH]c(CCCCCOc2ccc(-c3ccn[nH]3)nc2)no1"
Outgoing: 27

Incoming: Next record, please: "O=C(O)Cn1cc(CCCOc2ccc(-c3ccn[nH]3)nc2)nn1"
Outgoing: 3000
